Recorded relative permittivity at zero frequency for the following molecules
# assayInfo: relative permittivity at zero frequency (dimensionless)
# testParameters: 295.65 K; 101.33 kPa; Liquid; Parallel plate capacitor
Numbers after ± are expanded uncertainties.
measuredEndpoint: relative permittivity at zero frequency

molecule: O=C1CCCCC1 [cyclohexanone]
measurement: 15.92 ± 0.02

molecule: O=C1CCCCCC1 [cycloheptanone]
measurement: 13.03 ± 0.02

molecule: O=C1CCC1 [cyclobutanone]
measurement: 15.08 ± 0.02

molecule: O=C1CCCC1 [cyclopentanone]
measurement: 13.58 ± 0.04

====

# assayInfo: relative permittivity at zero frequency (dimensionless)
# testParameters: 313.15 K; 101.33 kPa; Liquid; Parallel plate capacitor
Recorded relative permittivity at zero frequency for the following compounds
measuredEndpoint: relative permittivity at zero frequency

substanceSmiles: O=C1CCCC1
measuredEndpoint: relative permittivity at zero frequency
measurement: 12.95
--
substanceSmiles: O=C1CCCCC1
measuredEndpoint: relative permittivity at zero frequency
measurement: 14.89
--
substanceSmiles: O=C1CCCCCCC1
measuredEndpoint: relative permittivity at zero frequency
measurement: 13.57
--
substanceSmiles: O=C1CCC1
measuredEndpoint: relative permittivity at zero frequency
measurement: 14.25
--
substanceSmiles: O=C1CCCCCC1
measuredEndpoint: relative permittivity at zero frequency
measurement: 12.32

====

# assayInfo: relative permittivity at zero frequency (dimensionless)
# testParameters: 303.15 K; 101.33 kPa; Liquid; Parallel plate capacitor

substanceSmiles: O=C1CCCCCC1
relative permittivity at zero frequency: 12.72
//
substanceSmiles: O=C1CCCCC1
relative permittivity at zero frequency: 15.46
//
substanceSmiles: O=C1CCCCCCC1
relative permittivity at zero frequency: 14.22
//
substanceSmiles: O=C1CCC1
relative permittivity at zero frequency: 14.72
//
substanceSmiles: O=C1CCCC1
relative permittivity at zero frequency: 13.3

====

Recorded relative permittivity at zero frequency for the following compounds
# assayInfo: relative permittivity at zero frequency (dimensionless)
# testParameters: 305.65 K; 101.33 kPa; Liquid; Parallel plate capacitor

substanceSmiles: O=C1CCCCC1
relative permittivity at zero frequency: 15.32

substanceSmiles: O=C1CCC1
relative permittivity at zero frequency: 14.6

substanceSmiles: O=C1CCCCCCC1
relative permittivity at zero frequency: 14.05

substanceSmiles: O=C1CCCCCC1
relative permittivity at zero frequency: 12.62

substanceSmiles: O=C1CCCC1
relative permittivity at zero frequency: 13.22

====

# assayInfo: relative permittivity at zero frequency (dimensionless)
# testParameters: 255.65 K; 101.33 kPa; Liquid; Parallel plate capacitor
Recorded relative permittivity at zero frequency for the following compounds

compound: O=C1CCCCCC1 [cycloheptanone]
relative permittivity at zero frequency: 14.85

compound: O=C1CCCC1 [cyclopentanone]
relative permittivity at zero frequency: 15.15

compound: O=C1CCCCC1 [cyclohexanone]
relative permittivity at zero frequency: 18.73

compound: O=C1CCC1 [cyclobutanone]
relative permittivity at zero frequency: 17.22

====

# assayInfo: relative permittivity at zero frequency (dimensionless)
# testParameters: 270.65 K; 101.33 kPa; Liquid; Parallel plate capacitor
measuredEndpoint: relative permittivity at zero frequency

molecule: O=C1CCCC1 [cyclopentanone]
measuredEndpoint: relative permittivity at zero frequency
measurement: 14.55
--
molecule: O=C1CCC1 [cyclobutanone]
measuredEndpoint: relative permittivity at zero frequency
measurement: 16.37
--
molecule: O=C1CCCCC1 [cyclohexanone]
measuredEndpoint: relative permittivity at zero frequency
measurement: 17.6
--
molecule: O=C1CCCCCC1 [cycloheptanone]
measuredEndpoint: relative permittivity at zero frequency
measurement: 14.14

====

# assayInfo: relative permittivity at zero frequency (dimensionless)
# testParameters: 268.15 K; 101.33 kPa; Liquid; Parallel plate capacitor
Recorded relative permittivity at zero frequency for the following compounds

substanceSmiles: O=C1CCC1
relative permittivity at zero frequency: 16.51
--
substanceSmiles: O=C1CCCCC1
relative permittivity at zero frequency: 17.78
--
substanceSmiles: O=C1CCCC1
relative permittivity at zero frequency: 14.65
--
substanceSmiles: O=C1CCCCCC1
relative permittivity at zero frequency: 14.25

====

# assayInfo: relative permittivity at zero frequency (dimensionless)
# testParameters: 308.15 K; 101.33 kPa; Liquid; Parallel plate capacitor
Recorded relative permittivity at zero frequency for the following compounds

substanceSmiles: O=C1CCC1
relative permittivity at zero frequency: 14.48

substanceSmiles: O=C1CCCC1
relative permittivity at zero frequency: 13.13

substanceSmiles: O=C1CCCCC1
relative permittivity at zero frequency: 15.17

substanceSmiles: O=C1CCCCCC1
relative permittivity at zero frequency: 12.51

substanceSmiles: O=C1CCCCCCC1
relative permittivity at zero frequency: 13.89

====

# assayInfo: relative permittivity at zero frequency (dimensionless)
# testParameters: 290.65 K; 101.33 kPa; Liquid; Parallel plate capacitor
measuredEndpoint: relative permittivity at zero frequency

substanceSmiles: O=C1CCCC1
measuredEndpoint: relative permittivity at zero frequency
measurement: 13.77

substanceSmiles: O=C1CCCCCC1
measuredEndpoint: relative permittivity at zero frequency
measurement: 13.25

substanceSmiles: O=C1CCC1
measuredEndpoint: relative permittivity at zero frequency
measurement: 15.33

substanceSmiles: O=C1CCCCC1
measuredEndpoint: relative permittivity at zero frequency
measurement: 16.24

====

# assayInfo: relative permittivity at zero frequency (dimensionless)
# testParameters: 298.15 K; 101.33 kPa; Liquid; Parallel plate capacitor
measuredEndpoint: relative permittivity at zero frequency

substanceSmiles: O=C1CCC1
measuredEndpoint: relative permittivity at zero frequency
measurement: 14.96
//
substanceSmiles: O=C1CCCCCCC1
measuredEndpoint: relative permittivity at zero frequency
measurement: 14.54
//
substanceSmiles: O=C1CCCC1
measuredEndpoint: relative permittivity at zero frequency
measurement: 13.49
//
substanceSmiles: O=C1CCCCC1
measuredEndpoint: relative permittivity at zero frequency
measurement: 15.77
//
substanceSmiles: O=C1CCCCCC1
measuredEndpoint: relative permittivity at zero frequency
measurement: 12.92

====

Recorded relative permittivity at zero frequency for the following compounds
# assayInfo: relative permittivity at zero frequency (dimensionless)
# testParameters: 285.65 K; 101.33 kPa; Liquid; Parallel plate capacitor
measuredEndpoint: relative permittivity at zero frequency

substanceSmiles: O=C1CCCC1
measurement: 13.96
//
substanceSmiles: O=C1CCCCCC1
measurement: 13.46
//
substanceSmiles: O=C1CCC1
measurement: 15.58
//
substanceSmiles: O=C1CCCCC1
measurement: 16.56

====

# assayInfo: relative permittivity at zero frequency (dimensionless)
# testParameters: 258.15 K; 101.33 kPa; Liquid; Parallel plate capacitor
measuredEndpoint: relative permittivity at zero frequency

substanceSmiles: O=C1CCCCCC1
measuredEndpoint: relative permittivity at zero frequency
measurement: 14.72
--
substanceSmiles: O=C1CCC1
measuredEndpoint: relative permittivity at zero frequency
measurement: 17.07
--
substanceSmiles: O=C1CCCCC1
measuredEndpoint: relative permittivity at zero frequency
measurement: 18.54
--
substanceSmiles: O=C1CCCC1
measuredEndpoint: relative permittivity at zero frequency
measurement: 15.05

====

Recorded relative permittivity at zero frequency for the following compounds
# assayInfo: relative permittivity at zero frequency (dimensionless)
# testParameters: 275.65 K; 101.33 kPa; Liquid; Parallel plate capacitor
measuredEndpoint: relative permittivity at zero frequency

compound: O=C1CCCCCC1 [cycloheptanone]
measuredEndpoint: relative permittivity at zero frequency
measurement: 13.91
//
compound: O=C1CCCCC1 [cyclohexanone]
measuredEndpoint: relative permittivity at zero frequency
measurement: 17.24
//
compound: O=C1CCC1 [cyclobutanone]
measuredEndpoint: relative permittivity at zero frequency
measurement: 16.11
//
compound: O=C1CCCC1 [cyclopentanone]
measuredEndpoint: relative permittivity at zero frequency
measurement: 14.35

====

Recorded relative permittivity at zero frequency for the following molecules
# assayInfo: relative permittivity at zero frequency (dimensionless)
# testParameters: 273.15 K; 101.33 kPa; Liquid; Parallel plate capacitor

substanceSmiles: O=C1CCCC1
relative permittivity at zero frequency: 14.45

substanceSmiles: O=C1CCC1
relative permittivity at zero frequency: 16.24

substanceSmiles: O=C1CCCCCC1
relative permittivity at zero frequency: 14.03

substanceSmiles: O=C1CCCCC1
relative permittivity at zero frequency: 17.42

====

# assayInfo: relative permittivity at zero frequency (dimensionless)
# testParameters: 288.15 K; 101.33 kPa; Liquid; Parallel plate capacitor
measuredEndpoint: relative permittivity at zero frequency

compound: O=C1CCC1 [cyclobutanone]
measuredEndpoint: relative permittivity at zero frequency
measurement: 15.46
//
compound: O=C1CCCCCC1 [cycloheptanone]
measuredEndpoint: relative permittivity at zero frequency
measurement: 13.35
//
compound: O=C1CCCC1 [cyclopentanone]
measuredEndpoint: relative permittivity at zero frequency
measurement: 13.86
//
compound: O=C1CCCCC1 [cyclohexanone]
measuredEndpoint: relative permittivity at zero frequency
measurement: 16.4

====

# assayInfo: relative permittivity at zero frequency (dimensionless)
# testParameters: 283.15 K; 101.33 kPa; Liquid; Parallel plate capacitor
Recorded relative permittivity at zero frequency for the following compounds

compound: O=C1CCC1 [cyclobutanone]
relative permittivity at zero frequency: 15.72

compound: O=C1CCCCC1 [cyclohexanone]
relative permittivity at zero frequency: 16.73

compound: O=C1CCCC1 [cyclopentanone]
relative permittivity at zero frequency: 14.06

compound: O=C1CCCCCC1 [cycloheptanone]
relative permittivity at zero frequency: 13.58
